- System: Eg5 mRNA in HeLa-S3 cells
- test: Eg5 bDNA assay of transfected siRNAs
- Assay type: cell-based, human
- experimental-context: Lipofectamine 2000 transfection, 24 hours
{Dig} = digoxigenin coupled through a C6 amino linker; {Cy5} = Cy5 fluorescent dye label; m = 2'-O-methyl; r = 2'-OH (RNA)
In this section, each of the substances is paired with its reported pIC50.
Scale for pIC50: -log10 of concentration given in mol/L; no unit attached.

Previously resolved entries follow.
Tell me the measured pIC50 of Eg5 siRNA: siRNA targeting Eg5, Seq. ID NO. 24/31 (chain 1 CUGAAGACCUGAAGACAAUUU; chain 2 AUUGUCUUCAGGUCUUCAGUU; chain 1: sugars from the 5' end r18 m3, backbone not given here; chain 2: RNA, backbone not given here) , please.
10.80

Quick check: pIC50 of Dig-Eg5 siRNA: mono-digoxygenated Eg5 siRNA, Seq. ID NO. 25/32 (chain 1 CUGAAGACCUGAAGACAAUUU; chain 2 AUUGUCUUCAGGUCUUCAGUU; chain 1: 2'-O-methyl at CU, RNA at AG, 3' {Dig}, backbone not given here; chain 2: RNA, backbone not given here; further chemistry not fully specified) ?
10.46

Next:
Recorded pIC50 for Dig-Eg5-Cy5 siRNA: digoxygenated Cy5-labeled Eg5 siRNA, Seq. ID NO. 27/34 (chain 1 CUGAAGACCUGAAGACAAUUU; chain 2 AUUGUCUUCAGGUCUUCAGUU; chain 1: RNA, 5' {Cy5}, 3' {Dig}, backbone not given here; chain 2: RNA, backbone not given here) , please?
10.89
